# tested_system: PDGFR-β (Homo sapiens, UniProt P09619)
# Sequence (P09619 33-1106): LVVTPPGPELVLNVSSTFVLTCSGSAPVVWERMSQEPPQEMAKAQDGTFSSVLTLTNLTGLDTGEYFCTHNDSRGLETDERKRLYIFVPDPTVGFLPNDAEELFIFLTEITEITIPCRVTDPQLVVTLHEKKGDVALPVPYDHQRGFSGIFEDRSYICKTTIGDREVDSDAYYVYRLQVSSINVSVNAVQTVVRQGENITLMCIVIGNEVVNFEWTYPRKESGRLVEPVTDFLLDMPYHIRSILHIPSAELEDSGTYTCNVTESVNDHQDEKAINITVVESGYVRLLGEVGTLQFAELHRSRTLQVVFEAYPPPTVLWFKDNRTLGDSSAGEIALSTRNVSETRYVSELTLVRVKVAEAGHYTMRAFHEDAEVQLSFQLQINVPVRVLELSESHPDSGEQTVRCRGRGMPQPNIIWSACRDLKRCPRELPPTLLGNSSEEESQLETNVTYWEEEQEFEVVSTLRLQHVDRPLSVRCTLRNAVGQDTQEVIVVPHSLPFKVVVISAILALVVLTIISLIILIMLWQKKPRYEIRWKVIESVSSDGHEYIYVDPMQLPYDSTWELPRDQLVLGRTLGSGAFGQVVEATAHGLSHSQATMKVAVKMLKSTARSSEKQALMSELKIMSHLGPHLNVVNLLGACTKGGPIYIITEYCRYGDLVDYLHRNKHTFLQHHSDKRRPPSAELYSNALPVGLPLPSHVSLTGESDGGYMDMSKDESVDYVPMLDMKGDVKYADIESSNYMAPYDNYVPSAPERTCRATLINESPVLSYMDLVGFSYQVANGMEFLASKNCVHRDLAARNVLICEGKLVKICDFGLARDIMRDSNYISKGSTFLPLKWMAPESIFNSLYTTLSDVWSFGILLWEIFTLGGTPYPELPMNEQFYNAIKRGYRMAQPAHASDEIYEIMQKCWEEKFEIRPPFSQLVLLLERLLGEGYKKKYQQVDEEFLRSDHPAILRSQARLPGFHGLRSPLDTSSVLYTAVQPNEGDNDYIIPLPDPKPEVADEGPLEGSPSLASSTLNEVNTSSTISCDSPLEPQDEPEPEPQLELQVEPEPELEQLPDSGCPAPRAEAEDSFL
measured_property: IC50

Study these solved cases before continuing.
[[record]]
molecule = "Cc1[nH]c(/C=C2\\C(=O)Nc3cc(-c4cccc(C(C)C)c4)ccc32)c(C)c1C(=O)NCCN1CCCC1 [Example 79]"
measured_property = "IC50"
measured_result = "> 100 µM"

[[record]]
molecule = "Cc1[nH]c(/C=C2\\C(=O)Nc3ccc(Br)cc32)c(C)c1C(=O)NCCN(C)C [Example 48]"
measured_property = "IC50"
measured_result = "< 0.78 µM"


// each molecule listed below needs its IC50
1. CC(=O)c1c(/C=C2\C(=O)Nc3ccc(Br)cc32)[nH]c(C(=O)NCCN2CCCC2)c1C [Example 35]
2. Cc1c(C(=O)NCCCN2CCCC2)[nH]c(/C=C2\C(=O)Nc3ccccc32)c1C(=O)c1ccccc1 [Example 23]
3. Cc1[nH]c(/C=C2\C(=O)Nc3ccc(-c4ccccc4)cc32)c(C)c1C(=O)NCCN1CCCC1 [Example 57]
4. COc1ccc2c(c1)/C(=C/c1[nH]c(C(=O)NCCCN3CCCC3)c(C)c1C(=O)c1ccccc1)C(=O)N2 [Example 27]
5. Cc1cc(C(=O)O)[nH]c1/C=C1\C(=O)Nc2ccccc21 [Example 1]
6. CCc1ccc(-c2ccc3c(c2)NC(=O)/C3=C\c2[nH]c(C)c(C(=O)NCCN3CCCC3)c2C)cc1 [Example 77]

1: > 100 µM; 2: > 100 µM; 3: 7.98 µM; 4: > 100 µM; 5: > 100 µM; 6: 25 µM

---

# tested_system: HER-2 kinase (Homo sapiens, UniProt P04626)
# Construct: Use EGFr/HER-2 chimera/3T3-C7 cell line for this assay; It is expressed in mouse NIH 3T3 clone C7 cells; P00533 (Epidermal growth factor receptor)
# Sequence (P04626 720-987 limits assumed): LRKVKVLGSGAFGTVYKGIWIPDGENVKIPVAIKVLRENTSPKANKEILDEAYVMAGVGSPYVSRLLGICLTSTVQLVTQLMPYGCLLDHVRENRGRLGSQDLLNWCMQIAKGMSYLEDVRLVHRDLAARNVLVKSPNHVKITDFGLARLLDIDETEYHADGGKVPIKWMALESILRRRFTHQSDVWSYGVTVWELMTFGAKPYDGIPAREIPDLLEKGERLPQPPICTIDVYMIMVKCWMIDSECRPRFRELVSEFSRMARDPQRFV
# experimental_protocol: Cellular HER-2 kinase assay
# test_context: read-out: Her2 Kinase IC50
pIC50: −log10 of the molar value.
Class label 1: pIC50 at least 5. Class label 0: pIC50 below 5.

Please review the following examples before continuing.
[[record]]
structure_as_smiles = "CCN(CC)CCCNC(=O)c1[nH]c(/C=C2\\C(=O)Nc3ccc(Br)cc32)c2c1CCCC2"
tested_system = "HER-2 kinase (Homo sapiens, UniProt P04626)"
assigned_category = "label 1"

[[record]]
structure_as_smiles = "CCN(CC)CCCNC(=O)c1[nH]c(/C=C2\\C(=O)Nc3ccc(Br)cc32)cc1C"
tested_system = "HER-2 kinase (Homo sapiens, UniProt P04626)"
assigned_category = "label 1"


Please indicate if the recorded pIC50 for `Cc1[nH]c(/C=C2\C(=O)Nc3ccc(Br)cc32)c(C)c1C(=O)NCc1ccncc1` meets or exceeds 5. label 0

Given `CCN(CC)CCCNC(=O)c1c(C)[nH]c(/C=C2\C(=O)Nc3cc(-c4ccccc4)ccc32)c1C` , state whether its pIC50 is at least 5. label 0

Reported pIC50 reaches at least 5 for `Cc1[nH]c(/C=C2\C(=O)Nc3cc(-c4cccnc4)ccc32)c(C)c1C(=O)NCCCN(C)C` ? label 0

For this compound, is measured pIC50 5 or higher? `Cc1[nH]c(/C=C2\C(=O)Nc3ccc(Br)cc32)c(C)c1C(=O)NCCCn1ccnc1` label 0

---

Would you mind telling me the reported pIC50 of each entry?
# tested_system: EGFR (Homo sapiens, UniProt P00533)
# Construct: A431 cell lysate (SUGEN, Inc.); host or cells: A431
# Sequence (P00533 25-1210): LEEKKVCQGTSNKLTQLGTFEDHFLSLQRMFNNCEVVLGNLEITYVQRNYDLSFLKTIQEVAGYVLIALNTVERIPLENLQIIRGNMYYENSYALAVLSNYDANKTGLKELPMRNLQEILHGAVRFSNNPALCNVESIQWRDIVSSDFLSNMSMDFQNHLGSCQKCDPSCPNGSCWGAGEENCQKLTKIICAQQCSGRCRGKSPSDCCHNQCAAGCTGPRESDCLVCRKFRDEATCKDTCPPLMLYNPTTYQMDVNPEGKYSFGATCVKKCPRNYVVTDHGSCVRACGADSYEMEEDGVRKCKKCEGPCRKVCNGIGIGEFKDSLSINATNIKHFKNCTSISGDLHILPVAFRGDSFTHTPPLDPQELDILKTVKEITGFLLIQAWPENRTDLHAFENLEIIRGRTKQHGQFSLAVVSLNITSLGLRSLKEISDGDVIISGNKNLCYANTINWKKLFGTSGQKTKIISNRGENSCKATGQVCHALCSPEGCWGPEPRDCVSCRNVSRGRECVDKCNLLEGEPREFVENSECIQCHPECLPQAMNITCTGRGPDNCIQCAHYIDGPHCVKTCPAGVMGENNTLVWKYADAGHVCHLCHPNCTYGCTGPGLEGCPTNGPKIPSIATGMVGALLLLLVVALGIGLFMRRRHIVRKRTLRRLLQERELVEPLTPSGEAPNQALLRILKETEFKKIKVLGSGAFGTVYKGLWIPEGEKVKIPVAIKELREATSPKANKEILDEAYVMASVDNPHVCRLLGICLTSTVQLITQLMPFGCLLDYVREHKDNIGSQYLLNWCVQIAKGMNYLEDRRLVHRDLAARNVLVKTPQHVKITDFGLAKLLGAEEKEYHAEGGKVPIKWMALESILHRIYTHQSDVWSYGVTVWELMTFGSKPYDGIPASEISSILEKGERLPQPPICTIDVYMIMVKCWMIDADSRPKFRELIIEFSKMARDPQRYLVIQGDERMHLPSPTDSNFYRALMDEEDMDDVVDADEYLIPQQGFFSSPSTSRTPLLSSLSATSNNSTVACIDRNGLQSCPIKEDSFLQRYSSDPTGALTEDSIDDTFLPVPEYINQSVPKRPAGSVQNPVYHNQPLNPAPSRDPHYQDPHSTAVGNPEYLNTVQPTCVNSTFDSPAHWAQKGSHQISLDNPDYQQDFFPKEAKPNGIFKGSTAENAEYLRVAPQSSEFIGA
# experimental_protocol: cell EGF assay
# Format: cell-based
Numbers only, as −log10 of the molar value.

// below: answered molecules
[[record]]
structure_as_smiles = "CCN(CC)CCNC(=O)c1c(C(C)C)[nH]c(/C=C2\\C(=O)Nc3ccc(Br)cc32)c1-c1ccccc1"
tested_system = "EGFR (Homo sapiens, UniProt P00533)"
measured_result = 4.84

[[record]]
structure_as_smiles = "CCN(CC)CCNC(=O)c1c(C)[nH]c(/C=C2\\C(=O)Nc3ccc(-c4ccccc4)cc32)c1C"
tested_system = "EGFR (Homo sapiens, UniProt P00533)"
measured_result = 5.00

[[record]]
structure_as_smiles = "Cc1[nH]c(/C=C2\\C(=O)Nc3ccc(-c4ccccc4)cc32)c(C)c1C(=O)NCCN1CCCC1"
tested_system = "EGFR (Homo sapiens, UniProt P00533)"
measured_result = 5.00


Continue with the molecule presented below.
With EGFR (Homo sapiens, UniProt P00533) as the test system, `Cc1[nH]c(/C=C2\C(=O)Nc3ccc(Br)cc32)c(-c2ccccc2)c1C(=O)NCCN(C)C` showed pIC50 of 4.17
